src = ChEMBL document CHEMBL6087386

Experiment: MRT (0 to t) in ICR mouse at 100 mg/kg, iv measured upto 24 hrs by LC-MS/MS analysis
Format: ADME, organism-based
Conditions: in vivo
Entries and their measured MRT last at 24 h follow.
The reply should contain only the number, in h.

Examples from the recorded data:
CC(C)=CCC/C(C)=C/CC/C(C)=C/CC[C@]1(C)CCc2cc(OCCO)cc(C)c2O1 : 0.67
CC(C)=CCC/C(C)=C/CC/C(C)=C/CC[C@]1(C)CCc2cc(OC(=O)CCC(=O)O)cc(C)c2O1 : 1.36

Shifting focus to the compound that follows.
Using known records, supply MRT last at 24 h for CC(C)=CCC/C(C)=C/CC/C(C)=C/CC[C@]1(C)CCc2cc(O)cc(C)c2O1 [DELTA-TOCOTRIENOL]
1.46

---

Assay: Stability in C57BL/6J mouse plasma assessed as half-life
Type: ADME, cell-free
Entries and their measured half-life follow.
The reply should contain only the number, in min.

CC(C)=CCC/C(C)=C/CC/C(C)=C/CC[C@]1(C)CCc2cc(OC(=O)CCC(=O)O)cc(C)c2O1 : 224

Shifting focus to the compound that follows.
Using known records, supply half-life for CCN(CC)CCOC(=O)c1ccc(N)cc1 [PROCAINE]
13.2

---

Assay: Cmax in ICR mouse at 100 mg/kg, iv measured upto 24 hrs by LC-MS/MS analysis
Type: ADME, organism-based
Conditions: in vivo
Entries and their measured Cmax follow.
The reply should contain only the number, in ng/mL.

Examples from the recorded data:
CC(C)=CCC/C(C)=C/CC/C(C)=C/CC[C@]1(C)CCc2cc(OCCO)cc(C)c2O1 : 8.15
CC(C)=CCC/C(C)=C/CC/C(C)=C/CC[C@]1(C)CCc2cc(O)cc(C)c2O1 : 1.11

Shifting focus to the compound that follows.
Using known records, supply Cmax for "CC(C)=CCC/C(C)=C/CC/C(C)=C/CC[C@]1(C)CCc2cc(OC(=O)CCC(=O)O)cc(C)c2O1"
5.15

---

Entries and their measured MRT inf follow.
Assay: MRT (0 to infinity) in ICR mouse at 100 mg/kg, iv measured upto 24 hrs by LC-MS/MS analysis
Format: ADME, organism-based
Conditions: ICR, in vivo
The reply should contain only the number, in h.

Using known records, supply MRT inf for "CC(C)=CCC/C(C)=C/CC/C(C)=C/CC[C@]1(C)CCc2cc(OCCO)cc(C)c2O1"
0.92

Using known records, supply MRT inf for "CC(C)=CCC/C(C)=C/CC/C(C)=C/CC[C@]1(C)CCc2cc(O)cc(C)c2O1"
1.63

---

Assay: Stability in […] human plasma assessed as half-life
Format: ADME, cell-free
quantity-kind: half-life
Answer with the value and then the unit.

Using known records, supply half-life for CCN(CC)CCOC(=O)c1ccc(N)cc1 [PROCAINE]
0.7 min

Using known records, supply half-life for "CC(C)=CCC/C(C)=C/CC/C(C)=C/CC[C@]1(C)CCc2cc(OC(=O)CCC(=O)O)cc(C)c2O1"
115 min

---

Entries and their measured survival at 100 mg/kg follow.
Test system: Mus musculus
Test: Radioprotective activity in C57BL/6J mouse assessed as survival rate at 100 mg/kg, sc preincubated with compound for 24 hrs followed by total body irradiation with 8.5 Gy and measured after 30 days by Kaplan-meier plot analysis
Format: functional
Settings: Mus musculus, C57BL/6J, light or radiation study, 744 h, time 31 day
The reply should contain only the number, in %.

Examples from the recorded data:
CC(C)=CCC/C(C)=C/CC/C(C)=C/CC[C@]1(C)CCc2cc(OC(=O)/C=C/C(=O)O)cc(C)c2O1 : 90
CC(C)=CCC/C(C)=C/CC/C(C)=C/CC[C@]1(C)CCc2cc(OC(=O)CCCCCC(=O)O)cc(C)c2O1 : 90
CC(C)=CCC/C(C)=C/CC/C(C)=C/CC[C@]1(C)CCc2cc(OC(=O)CCC(=O)O)cc(C)c2O1 : 90

Using known records, supply survival at 100 mg/kg for "CC(C)=CCC/C(C)=C/CC/C(C)=C/CC[C@]1(C)CCc2cc(OC(=O)C3CCNCC3)cc(C)c2O1"
70
